- tested.system: Macaca fascicularis IL-36R extracellular domain expressed with a C-terminal myc-myc-hexahistidine tag (Macaca fascicularis)
- procedure.summary: SPR (Biacore 4000), mAb captured on anti-human Fc, 25°C
measured.endpoint: kon (M⁻¹ s⁻¹)
Provide only the numeric value, understood in M⁻¹ s⁻¹.

Input: kon lookup needed for H4H14708P2 (antibody, human IgG4 S228P, kappa, V domains shown) VH: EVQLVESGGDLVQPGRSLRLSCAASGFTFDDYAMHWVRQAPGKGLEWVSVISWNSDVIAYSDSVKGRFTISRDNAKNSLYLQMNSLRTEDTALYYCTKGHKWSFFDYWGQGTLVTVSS VL: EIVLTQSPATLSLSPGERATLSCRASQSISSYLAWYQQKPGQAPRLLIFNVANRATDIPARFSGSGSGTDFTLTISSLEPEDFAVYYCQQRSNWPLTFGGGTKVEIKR , thanks.
Output: 45000

Input: Request the reported kon associated with H4H14728P (antibody, human IgG4 S228P, kappa, V domains shown) VH: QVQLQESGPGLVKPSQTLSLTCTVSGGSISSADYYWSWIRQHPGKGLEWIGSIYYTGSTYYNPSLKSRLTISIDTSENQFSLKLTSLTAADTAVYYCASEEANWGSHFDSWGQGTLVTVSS VL: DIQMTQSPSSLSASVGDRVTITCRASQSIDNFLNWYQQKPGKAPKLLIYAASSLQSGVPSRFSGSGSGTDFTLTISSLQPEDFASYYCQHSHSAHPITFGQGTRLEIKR
Output: 51500

Input: What does the data say about its kon? Entry: H4H14700P2 (antibody, human IgG4 S228P, kappa, V domains shown) VH: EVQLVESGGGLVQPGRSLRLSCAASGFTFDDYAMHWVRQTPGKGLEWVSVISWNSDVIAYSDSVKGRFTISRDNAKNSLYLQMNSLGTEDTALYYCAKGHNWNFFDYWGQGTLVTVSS VL: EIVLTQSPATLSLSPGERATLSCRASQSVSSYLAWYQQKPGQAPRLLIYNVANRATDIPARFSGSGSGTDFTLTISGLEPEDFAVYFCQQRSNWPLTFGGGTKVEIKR
Output: 60200

Would you kindly look at the next entry?
Input: Which kon is reported for this binder? H4H14731P (antibody, human IgG4 S228P, kappa, V domains shown) VH: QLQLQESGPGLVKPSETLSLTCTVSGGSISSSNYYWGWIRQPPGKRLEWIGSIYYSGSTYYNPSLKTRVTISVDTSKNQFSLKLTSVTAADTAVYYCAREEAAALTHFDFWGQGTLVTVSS VL: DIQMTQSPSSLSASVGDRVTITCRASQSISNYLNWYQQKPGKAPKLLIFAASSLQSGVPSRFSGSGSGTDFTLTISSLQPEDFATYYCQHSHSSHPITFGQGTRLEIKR
Output: 59800
